Reference source: patent US20160263155A1

System: chimeric Caspase-9 polypeptide
Sequence (as listed by the source, change not shown): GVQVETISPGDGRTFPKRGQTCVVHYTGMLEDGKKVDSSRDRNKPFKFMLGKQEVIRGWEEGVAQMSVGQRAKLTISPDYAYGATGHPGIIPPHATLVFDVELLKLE
Assay: Caspase mutant classes and basal activity (Table 3)
Type: cell-based, human
Details: class heading of Table 3
readout.type: Basal Activity

>  <molecule>
Y153A (protein) GFGDVGALESLRGNADLAAILSMEPCGHCLIINNVNFCRESGLRTRTGSNIDCEKLRRRFSSLHFMVEVKGDLTAKKMVLALLELAQQDHGALDCCVVVILSHGCQASHLQFPGAVYGTDGCPVSVEKIVNIFNGTSCPSLGGKPKLFFIQACGGEQKDHGFEVASTSPEDESPGSNPEPDATPFQEGLRTFDQLDAISSLPTPSDIFVSYSTFPGFVSWRDPKSGSWYVETLDDIFEQWAHSEDLQSLLLRVANAVSVKGIYKQMPGCFNFLRKKLFFKTS

>  <readout.type>
Basal Activity

>  <observed.value>
Decreased

$$$$
>  <molecule>
S144D (protein) GFGDVGALEDLRGNADLAYILSMEPCGHCLIINNVNFCRESGLRTRTGSNIDCEKLRRRFSSLHFMVEVKGDLTAKKMVLALLELAQQDHGALDCCVVVILSHGCQASHLQFPGAVYGTDGCPVSVEKIVNIFNGTSCPSLGGKPKLFFIQACGGEQKDHGFEVASTSPEDESPGSNPEPDATPFQEGLRTFDQLDAISSLPTPSDIFVSYSTFPGFVSWRDPKSGSWYVETLDDIFEQWAHSEDLQSLLLRVANAVSVKGIYKQMPGCFNFLRKKLFFKTS

>  <readout.type>
Basal Activity

>  <observed.value>
Decreased

$$$$
>  <molecule>
F404A (protein) GFGDVGALESLRGNADLAYILSMEPCGHCLIINNVNFCRESGLRTRTGSNIDCEKLRRRFSSLHFMVEVKGDLTAKKMVLALLELAQQDHGALDCCVVVILSHGCQASHLQFPGAVYGTDGCPVSVEKIVNIFNGTSCPSLGGKPKLFFIQACGGEQKDHGFEVASTSPEDESPGSNPEPDATPFQEGLRTFDQLDAISSLPTPSDIFVSYSTFPGFVSWRDPKSGSWYVETLDDIFEQWAHSEDLQSLLLRVANAVSVKGIYKQMPGCANFLRKKLFFKTS

>  <readout.type>
Basal Activity

>  <observed.value>
dead

$$$$
